Reference for the values: ChEMBL document CHEMBL1201862

Tested on: MCF7
Assay: NCI tumour cell line growth inhibition, 48 h
Calls of active or inactive are those of the source. No stated cut-off is given here; in the data, active = GI50 up to about 1.1 µM and inactive = higher.
endpoint: GI50

These solved cases illustrate the format of a correct answer.
compound | experimentalTarget | resultValue
Cc1ccc(C2(O)CS/C(=N\C34CC5CC(CC(C5)C3)C4)N2C(P(=O)(O)O)P(=O)(O)O)cc1 (centres undefined) | MCF7 | 65.2 µM (inactive)
OCCCc1ccc2c(c1)[C@H](CO)[C@@H](c1ccc(O)cc1)O2 | MCF7 | > 100 µM (inactive)
C=CCOC1(CC=C)C(=O)OC2C(O)COC21O (centres undefined) | MCF7 | > 100 µM (inactive)

*Q* Consider the compound shown here: COc1ccc2[nH]c3nnc(N)c-3nc2c1 What is its recorded GI50?
*A* 3.99 µM (inactive)
